test: The drug is tested on Clostridium scindens strain: ATCC35704 for biotransformation. The drug concentrations were measured before and after a 12-h incubation by liquid-chromatography-coupled mass spectrometry (LC–MS); conditions: 2 µM
ASSAY METRIC: Bacterial Biotransformation

COMPOUND: COc1ccccc1OCCNCC(O)COc1cccc2[nH]c3ccccc3c12 (stereo not drawn)
EXPERIMENTAL VALUE: Compound NOT metabolized
--
COMPOUND: C[C@@H]1CC[C@H]2[C@@H](C)C(=O)O[C@@H]3O[C@@]4(C)CC[C@@H]1[C@]32OO4
EXPERIMENTAL VALUE: Compound metabolized
--
COMPOUND: CCN(CC)C(=O)/C(C#N)=C/c1cc(O)c(O)c([N+](=O)[O-])c1
EXPERIMENTAL VALUE: Compound metabolized
--
COMPOUND: COCCc1ccc(OCC(O)CNC(C)C)cc1.COCCc1ccc(OCC(O)CNC(C)C)cc1.O=C(O)C(O)C(O)C(=O)O (stereo not drawn) [METOPROLOL TARTRATE]
EXPERIMENTAL VALUE: Compound NOT metabolized

Problem: I would be grateful if you could share the reported Bacterial Biotransformation for COc1ccccc1OCC(O)CN1CCN(CC(=O)Nc2c(C)cccc2C)CC1 (stereo not drawn) .
Solution: Compound NOT metabolized

###

assay: The drug is tested on Eubacterium rectale strain: ATCC33656 for biotransformation. The drug concentrations were measured before and after a 12-h incubation by liquid-chromatography-coupled mass spectrometry (LC–MS); conditions: agathobacter rectalis, 2 µM
ASSAY METRIC: Bacterial Biotransformation

COMPOUND: COc1ccccc1OCC(O)CN1CCN(CC(=O)Nc2c(C)cccc2C)CC1 (centres undefined)
EXPERIMENTAL VALUE: Compound NOT metabolized
--
COMPOUND: CSc1ccc2c(c1)C(N1CCN(C)CC1)Cc1ccccc1S2.O=C(O)/C=C\C(=O)O (centres undefined)
EXPERIMENTAL VALUE: Compound NOT metabolized
--
COMPOUND: CC(=O)OCC(CCn1cnc2cnc(N)nc21)COC(C)=O
EXPERIMENTAL VALUE: Compound NOT metabolized

###

details: bacteroides thetaiotaomicron, 12 h, 2 µM
Description: The drug is tested on Bacteroides thetaiotaomicron strain: VPI-5482 for biotransformation. The drug concentrations were measured before and after a 12-h incubation by liquid-chromatography-coupled mass spectrometry (LC–MS)
ASSAY METRIC: Bacterial Biotransformation

// solved cases for Bacterial Biotransformation follow
MOLECULE: Nc1nnc(-c2cccc(Cl)c2Cl)c(N)n1
EXPERIMENTAL VALUE: Compound NOT metabolized
//
MOLECULE: Cc1nc(-c2ccc(OCC(C)C)c(C#N)c2)sc1C(=O)O
EXPERIMENTAL VALUE: Compound NOT metabolized
//
MOLECULE: O=C(CCCN1CCC(O)(c2ccc(Cl)cc2)CC1)c1ccc(F)cc1
EXPERIMENTAL VALUE: Compound NOT metabolized
//
MOLECULE: CCOc1ccccc1OCCN[C@H](C)Cc1ccc(OC)c(S(N)(=O)=O)c1.Cl [TAMSULOSIN HYDROCHLORIDE]
EXPERIMENTAL VALUE: Compound NOT metabolized
//
MOLECULE: CN(C)CCOC(C)(c1ccccc1)c1ccccn1.O=C(O)CCC(=O)O (centres undefined) [DOXYLAMINE SUCCINATE]
EXPERIMENTAL VALUE: Compound NOT metabolized

Lab note: next molecule to report on.
Problem: I would be grateful if you could share the reported Bacterial Biotransformation for CN[C@H]1CC[C@@H](c2ccc(Cl)c(Cl)c2)c2ccccc21 .
Solution: Compound NOT metabolized

###

experiment: The drug is tested on the gut metagenome community of MV27 with ENA study accession number: PRJEB31790 and ENA sample accession number: SAMEA5537508 for biotransformation. The drug concentrations were measured over 9 timepoints collected between 0 and 24 hours of incubation by liquid-chromatography-coupled mass spectrometry (LC–MS); format: ADME; parameters: dose 2 uM, timepoint 0, 1, 2, 4, 6, 8, 12, 18, 24 hours; conditions: 2 µM

COMPOUND: CC(=O)OCC(CCn1cnc2cnc(N)nc21)COC(C)=O
Bacterial Biotransformation: Compound metabolized

COMPOUND: COc1ccc([C@@H]2Sc3ccccc3N(CCN(C)C)C(=O)[C@@H]2OC(C)=O)cc1
Bacterial Biotransformation: Compound NOT metabolized

COMPOUND: C#C[C@]1(OC(C)=O)CC[C@H]2[C@@H]3CCC4=CC(=O)CC[C@@H]4[C@H]3CC[C@@]21C [NORETHINDRONE ACETATE]
Bacterial Biotransformation: Compound metabolized

COMPOUND: C[C@@H]1C[C@H]2[C@@H]3CCC4=CC(=O)C=C[C@]4(C)[C@@]3(F)[C@@H](O)C[C@]2(C)[C@@]1(O)C(=O)CO
Bacterial Biotransformation: Compound NOT metabolized

###

conditions: bacteroides eggerthii, 12 h, 2 µM
Description: The drug is tested on Bacteroides eggerthii strain: DSM20697 for biotransformation. The drug concentrations were measured before and after a 12-h incubation by liquid-chromatography-coupled mass spectrometry (LC–MS)

COMPOUND: O=C(CCCN1CCC2(CC1)C(=O)NCN2c1ccccc1)c1ccc(F)cc1 [SPIPERONE]
Bacterial Biotransformation: Compound NOT metabolized
//
COMPOUND: CCN(C)C(=O)Oc1cccc([C@H](C)N(C)C)c1.O=C(O)C(O)C(O)C(=O)O [RIVASTIGMINE TARTRATE]
Bacterial Biotransformation: Compound NOT metabolized
//
COMPOUND: CC(CCc1ccccc1)NCC(O)c1ccc(O)c(C(N)=O)c1 (centres undefined) [LABETALOL]
Bacterial Biotransformation: Compound NOT metabolized

###

conditions: bacteroides thetaiotaomicron, 12 h, 2 µM
ASSAY METRIC: Bacterial Biotransformation

COMPOUND: CC(=O)OCC(=O)NCCCOc1cccc(CN2CCCCC2)c1 [ROXATIDINE ACETATE]
EXPERIMENTAL VALUE: Compound metabolized

COMPOUND: OCCN1CCN(CCCN2c3ccccc3Sc3ccc(C(F)(F)F)cc32)CC1
EXPERIMENTAL VALUE: Compound metabolized

COMPOUND: O=c1[nH]c2ccccc2n1C1CCN(CCCC(c2ccc(F)cc2)c2ccc(F)cc2)CC1 [PIMOZIDE]
EXPERIMENTAL VALUE: Compound NOT metabolized

COMPOUND: CC(=O)OCC(=O)[C@@]1(OC(C)=O)[C@@H](C)C[C@H]2[C@@H]3C[C@H](F)C4=CC(=O)C=C[C@]4(C)[C@@]3(F)[C@@H](O)C[C@@]21C [DIFLORASONE DIACETATE]
EXPERIMENTAL VALUE: Compound metabolized

COMPOUND: CN1CCc2c(c3ccccc3n2Cc2ccccc2)C1.CN1CCc2c(c3ccccc3n2Cc2ccccc2)C1.O=S(=O)(O)c1cccc2c(S(=O)(=O)O)cccc12
EXPERIMENTAL VALUE: Compound NOT metabolized

COMPOUND: CN1C(=O)CCS(=O)(=O)C1c1ccc(Cl)cc1 (stereo not drawn)
EXPERIMENTAL VALUE: Compound NOT metabolized

COMPOUND: O=P(O)(O)O.c1ccc(CN(CC2=NCCN2)c2ccccc2)cc1 [ANTAZOLINE PHOSPHATE]
EXPERIMENTAL VALUE: Compound NOT metabolized

COMPOUND: OC(CCN1CCCCC1)(c1ccccc1)C1CCCCC1 (stereo not drawn)
EXPERIMENTAL VALUE: Compound NOT metabolized

Problem: I would be grateful if you could share the reported Bacterial Biotransformation for CCOc1ccc(NC(C)=O)cc1 .
Solution: Compound NOT metabolized

Problem: I would be grateful if you could share the reported Bacterial Biotransformation for CN1C(C(=O)Nc2ccccn2)=C(O)c2sccc2S1(=O)=O .
Solution: Compound NOT metabolized

Problem: I would be grateful if you could share the reported Bacterial Biotransformation for Cc1cc2c(cc1S(N)(=O)=O)S(=O)(=O)CCC2 .
Solution: Compound NOT metabolized

Problem: I would be grateful if you could share the reported Bacterial Biotransformation for Cc1cn([C@H]2C[C@H](N=[N+]=[N-])[C@@H](CO)O2)c(=O)[nH]c1=O .
Solution: Compound NOT metabolized

###

experiment: The drug is tested on Bacteroides finegoldii strain: DSM17565 for biotransformation. The drug concentrations were measured before and after a 12-h incubation by liquid-chromatography-coupled mass spectrometry (LC–MS); conditions: 2 µM
ASSAY METRIC: Bacterial Biotransformation

// solved cases for Bacterial Biotransformation follow
COMPOUND: CC(=O)OCC(=O)[C@@]1(O)[C@@H](C)C[C@H]2[C@@H]3CCC4=CC(=O)C=C[C@]4(C)[C@@]3(F)[C@@H](O)C[C@@]21C [BETAMETHASONE ACETATE]
Bacterial Biotransformation: Compound NOT metabolized
--
COMPOUND: CN1CCc2c(c3ccccc3n2Cc2ccccc2)C1.CN1CCc2c(c3ccccc3n2Cc2ccccc2)C1.O=S(=O)(O)c1cccc2c(S(=O)(=O)O)cccc12
Bacterial Biotransformation: Compound NOT metabolized
--
COMPOUND: COc1c2occc2cc2ccc(=O)oc12
Bacterial Biotransformation: Compound metabolized
--
COMPOUND: CCCCC(=O)N(Cc1ccc(-c2ccccc2-c2nnn[nH]2)cc1)[C@H](C(=O)O)C(C)C
Bacterial Biotransformation: Compound metabolized
--
COMPOUND: C[C@@H](CO)NC(=O)[C@@H]1C=C2c3cccc4[nH]cc(c34)C[C@H]2N(C)C1.O=C(O)/C=C\C(=O)O [ERGONOVINE MALEATE]
Bacterial Biotransformation: Compound NOT metabolized

Problem: I would be grateful if you could share the reported Bacterial Biotransformation for CCN(CC)CCNC(=O)c1ccc(NC(C)=O)cc1 [ACECAINIDE] .
Solution: Compound NOT metabolized

Problem: I would be grateful if you could share the reported Bacterial Biotransformation for CN1CCOC(c2ccccc2)c2ccccc2C1 (stereo not drawn) .
Solution: Compound NOT metabolized

Problem: I would be grateful if you could share the reported Bacterial Biotransformation for OCCN(CCO)c1nc(N2CCCCC2)c2nc(N(CCO)CCO)nc(N3CCCCC3)c2n1 .
Solution: Compound NOT metabolized
